- study-target: SNX27, Q96L92
- protocol-description: holdup assay
- Parameters: key: below the threshold = too weak to quantify, mostly under pKd 3.1 to 4
- condition-notes: plain residues with an end cap or a label only (N-terminal biotin on a linker: ado-ado)
So basically: pKd at 5 or higher? That is Criterion met. Lower than 5? That is Criterion not met.

binder: RHGSCVETSL [TMEM151B, Q8IW70]
group-label: Criterion met
--
binder: SAKVRTVTSV [RASL11B, Q9BPW5]
group-label: Criterion not met
--
binder: CLREWCDAFL [BANF1, O75531]
group-label: Criterion not met
--
binder: ETQVTAETVI [TMEM225B, P0DP42]
group-label: Criterion met
--
binder: QHKTQLQTLI [BPIFA2, Q96DR5]
group-label: Criterion not met
--
binder: DDENIRTSDV [PLEKHA2, Q9HB19]
group-label: Criterion not met
--
binder: GQEEQVTTRL [TRPC5, Q9UL62]
group-label: Criterion met
--
binder: PAPSSGKDYV [CLDN1, O95832]
group-label: Criterion not met
--
binder: SSALYGESDL [ACTN2, P35609]
group-label: Criterion not met
--
binder: SARSRLSSNL [HCN2, Q9UL51]
group-label: Criterion not met
--
binder: IKAIVDLTGL [TRAF2, Q12933]
group-label: Criterion not met
--
binder: VRNLPESEEL [MYOZ3, Q8TDC0]
group-label: Criterion not met
--
binder: TKGPRGPTRV [SAPCD1, Q5SSQ6]
group-label: Criterion not met
--
binder: DDPSTAETVL [ABCA7, Q8IZY2]
group-label: Criterion met
--
binder: EALLQMESVA [CAVIN3, Q969G5]
group-label: Criterion not met
--
binder: TASPAKETSF [SLC2A7, Q6PXP3]
group-label: Criterion met
--
binder: NLSIEKETKL [ASNSD1, Q9NWL6]
group-label: Criterion met
--
binder: YLEPVLSSEL [ATP2A2, P16615;P16615-3]
group-label: Criterion not met
--
binder: LPAHHNATRL [SLC34A1, Q06495;Q06495-1]
group-label: Criterion not met
